Measured EC50 accompanies every entry in the list below.
- Test system: PKC mediated IL-2 production
- Protocol description: IL-2 ELISA, human primary T cell, anti CD3+CD28+
- Assay type: cell-based
- Details: Homo sapiens, T-cell, 24 h, human primary T cells stimulated with αCD3 and αCD28, 24 hours

A selection of reference data follows.
# Compound, EC50
data = [
    ("CC1(COc2ccc(Nc3ncc(F)c(N[C@@H]4C[C@@H]5CCCN5C(C)(C)C4)n3)cc2-n2cnnn2)COC1", "< 100 nM"),
    ("CC1(C)C[C@H](Nc2nc(Nc3cc(-n4nnnc4C4CC4)ccc3F)ncc2Cl)C[C@@H]2CCCN21", "< 100 nM"),
    ("Cn1nnn(-c2cc(Nc3ncc(F)c(N[C@@H]4C[C@@H]5C[C@@H](O)CN5C(C)(C)C4)n3)c(F)cc2C2CC2)c1=O", "100 to 500 nM"),
    ("CC1(C)C[C@H](Nc2nc(Nc3ccc(O)c(-n4cnnn4)c3)ncc2F)C[C@@H]2CCCN21", "100 to 500 nM"),
    ("C[C@H](O)COc1cc(F)c(Nc2ncc(Cl)c(N[C@@H]3C[C@@H]4CCCN4C(C)(C)C3)n2)cc1-n1nnn(C)c1=O", "< 100 nM"),
]

Input: // EC50 lookup, key: CC(=O)O[C@H]1[C@H](OC(C)=O)C(Oc2ccc(Nc3ncc(F)c(N[C@@H]4C[C@@H]5CCCN5C(C)(C)C4)n3)cc2C#N)OC[C@H]1OC(C)=O (stereo partly shown)
Output: 100 to 500 nM

Input: Fill in: EC50 of COc1ccc(Nc2ncc(F)c(N[C@@H]3C[C@@H]4CCCN4C(C)(C)C3)n2)cc1-n1nnn(C)c1=O is ___
Output: < 100 nM

====

EC50 values for the compounds below.
- Test system: PKC mediated IL-2 production
- Protocol description: IL-2 ELISA, human primary T cell, anti CD3+CD28+
- Assay type: cell-based
- Details: Homo sapiens, T-cell, 24 h, human primary T cells stimulated with αCD3 and αCD28, 24 hours

Worked examples, 3 compounds total:
# Compound, EC50
rows = [
    ("CN1C(=O)COc2ccc(Nc3ncc(F)c(N[C@@H]4C[C@@H]5CCCN5C(C)(C)C4)n3)cc21", "1000 to 10000 nM"),
    ("[2H]C1(Oc2ccc(Nc3ncc(F)c(N[C@H]4CCN5[C@@H](CCC5(C)C)C4)n3)cc2Cl)CC(OCc2ccccc2)C1 (stereo partly shown)", "1000 to 10000 nM"),
    ("Cn1nnn(-c2cc(Nc3ncc(F)c(N[C@@H]4C[C@@H]5CCCN5C(C)(C)C4)n3)ccc2OCCO)c1=O", "< 100 nM"),
]

Then there is this compound:
Input: Given Cn1nnn(-c2cc(Nc3ncc(F)c(N[C@@H]4C[C@@H]5CCCN5C(C)(C)C4)n3)ccc2N2CCN(C3COC3)CC2)c1=O , state its recorded EC50.
Output: 1000 to 10000 nM

====

- System: PKC mediated IL-2 production
- Protocol description: IL-2 ELISA, human primary T cell, anti CD3+CD28+
- Assay type: cell-based
- Details: Homo sapiens, T-cell, 24 h, human primary T cells stimulated with αCD3 and αCD28, 24 hours
pEC50: −log10 of the molar value.
Readout: pEC50

Solved cases (2 shown):
# Compound, Experimental target, Value measured
data = [
    ("CNc1nnnn1-c1cc(Nc2ncc(F)c(N[C@@H]3C[C@@H]4CCCN4C(C)(C)C3)n2)c(F)cc1OC1COC1 [Compound 258]", "PKC mediated IL-2 production", "5.00 to 6.00"),
    ("CC1(C)Oc2ccc(Nc3ncc(F)c(N[C@@H]4C[C@@H]5CCCN5C(C)(C)C4)n3)cc2-n2nnnc21 [Compound 136]", "PKC mediated IL-2 production", "> 7.00"),
]

Now consider a different compound.
Input: Bench note: what pEC50 did CC(C)Oc1cc(F)c(Nc2ncc(F)c(N[C@@H]3C[C@@H]4CCCN4C(C)(C)C3)n2)cc1-n1nnnc1C1CC1 [Compound 257] show?
Output: < 5.00
